experiment: Agilent ZORBAX 300 SB-C18, 150 × 1 mm, 3.5 µm; A: water + 0.01% heptafluorobutyric acid; B: acetonitrile + 0.01% heptafluorobutyric acid; gradient (min/%B) 0/0 100/90; conditions: stereoisomer not certain
Lab note: cut-off is 8 min. Strictly less in LC retention time is true. Exactly 8 min or more is false.

Before answering, review these 4 worked examples.
C[N+](C)(N)Cc1ccccc1 : true
O=CN1CCNCC1 : true
NCCCN1CCc2ccccc21 : false
O=c1c(C=NCc2ccco2)c(NCc2ccco2)nc2ccccn12 : false

Please indicate whether the reported LC retention time of "CCNC(=S)NCCc1c[nH]c2ccccc12" is strictly below 8 min.
false

Note, next up: "Cc1cc2cc(N)ccc2n1C"
false

Note, next up: "Cc1[nH]c2ccccc2c1CCNC(=O)C1CCCCC1"
false

Note, next up: "Cc1ccc(-c2cc(-c3ccc(C)cc3)on2)cc1"
false

Note, next up: CN(C)CCCN1CCC(=O)C2CCCCC21 (stereo not drawn)
true

Note, next up: CC(C)NCC(O)COc1ccc(COCCOC(C)C)cc1 (stereo not drawn)
false

----------
Measured log10 LC retention time, listed per entry for reference.
experiment: Agilent ZORBAX 300 SB-C18, 150 × 1 mm, 3.5 µm; A: water + 0.01% heptafluorobutyric acid; B: acetonitrile + 0.01% heptafluorobutyric acid; gradient (min/%B) 0/0 100/90; settings: stereoisomer not certain
Hello, just confirming the data are log10 of LC retention time with units of min.

Reference set, count: 5
CCOC(=O)C=CC(=O)NNC(=O)CCC(=O)Nc1ccc(C)cc1C : 1.00
CC(C)c1ccc(OCC(=O)N2CCC(C(N)=O)CC2)cc1 : 1.03
Cc1ccc(-c2nn(CC(=O)Nc3cccnc3)c(=O)c3ccccc23)cc1 : 1.05
CCN(CC)CCNC(=O)c1ccc(N)cc1 : 0.89
CCCNC(=O)Nc1ccc(C(=O)OC)cc1 : 1.03

Tell me the measured log10 LC retention time of "CN(c1nc(-c2ccc(C(C)(C)C)cc2)nc2ccccc12)C1CCCCC1" , please.
1.20

Note, next up: "Cc1[nH]c2ccccc2c1CCNC(N)=O"
0.96

Note, next up: "c1ccc(C2=Nc3ccccc3Oc3ccccc32)cc1"
1.26

Note, next up: CC1CC(C)(C)Nc2ccc(O)cc21 (stereo not drawn)
0.91

Note, next up: "CCCc1c(O)c2ccccc2[nH]c1=O"
0.98

Note, next up: "CC(C)(C)c1ccc(-c2nc3ccccc3s2)cc1"
1.33

Note, next up: "Nc1ccc2c(c1)COC2=O"
0.86

Note, next up: "COC(=O)CC1CC(C)(C)NC(C)(C)C1"
0.90

Note, next up: "Cc1ccc2nc(C)cc(C(=O)O)c2c1"
0.79

----------
test: Agilent ZORBAX 300 SB-C18, 150 × 1 mm, 3.5 µm; A: water + 0.01% heptafluorobutyric acid; B: acetonitrile + 0.01% heptafluorobutyric acid; gradient (min/%B) 0/0 100/90; details: stereoisomer not certain
Heads up, the class ranges for LC retention time are low class: < 8 min; middle class: ≥ 8 min and < 10 min; high class: ≥ 10 min

Kindly identify the class of "Cc1ccccc1CN1CCN(Cc2c[nH]c3ccccc23)CC1" .
high class

Note, next up: "CCNCc1ccccc1"
low class

Note, next up: "COC(=O)CN"
low class

Note, next up: CC(C)[N+]1(C)C2CCC1CC(OC(=O)C(CO)c1ccccc1)C2 (stereo not drawn)
middle class

Note, next up: "CN(C)c1ccc(C(=O)N2CCCC2)cc1"
high class

Note, next up: "c1ccc(Nc2ccccc2)cc1"
high class
